Tested on: Leishmania donovani
Experiment: Leishmania intramacrophage assay
Format: functional, organism-based
Parameters: scale not given: in the data most compounds retested in dose-response had high values
Conditions: 30 µM; 30.03 µM
Out of some 69,000 compounds screened, about 1,000 (1.4%) showed an effect of 50% or more. Many of the other results were omitted from the sample, so strong results are more common in it than they were.
Test readout: Percent Effect (%)
Give bare numbers, in %.

The following compounds have reported results that may help.
Compound | Test system | Unit string | Percent Effect
Cc1nc(N2CCCC2)ncc1-c1cc(O)nc(N2CCCC2)n1 | Leishmania donovani | % | 15.83
O=C1NCCN1C1CCN(Cc2nc(-c3ccoc3)no2)CC1 | Leishmania donovani | % | 14.49

Prompt line: Checklist item: Percent Effect tested on Leishmania donovani, entry COc1cc(C(=O)N2CCCC(CNS(C)(=O)=O)C2)cc(OC)c1C (stereo not drawn) , value?
Response line: 16.86

----------
Test system: Leishmania donovani
Test: Leishmania intramacrophage assay
Assay type: functional, organism-based
Parameters: scale not given: in the data most compounds retested in dose-response had high values
Conditions: 30.3 µM; […]
Hit rate of the full screen: of about 69,000 compounds, about 1,000 (1.4%) showed an effect of 50% or more. Only a selection was taken, and strong results are over-represented in it overall.
Task for the reader: assign each of the following compounds its reported Percent Effect.
Numbers only, in %.

The following compounds have reported results that may help.
Compound | Test readout | Unit string | Endpoint value
COCC(=O)N1CCC2(CC1)CC(COC)N(Cc1ccccn1)C2.O=C(O)C(F)(F)F (stereo unspecified) | Percent Effect | % | 12.17
CCS(=O)(=O)N1CCc2ccc(NC(=O)Nc3cccc(F)c3)cc21 | Percent Effect | % | 17.8
Cc1ncc(CNCC(C)O)c2cc(C(=O)c3ccc(Br)cc3)oc12.Cl (stereo unspecified) | Percent Effect | % | 46.85
Cc1ccc(-c2ncc(CN3CCOC(c4ccco4)C3)s2)o1 (stereo unspecified) | Percent Effect | % | -6.468
O=C(O)C(F)(F)F.O=C(O)C(F)(F)F.c1csc(CN2CCCC3(COCCN(Cc4c[nH]nn4)C3)C2)c1 (stereo unspecified) | Percent Effect | % | 14.23

Count: 6. Required value per item: Percent Effect.
1. O[C@H]1[C@H](NCCc2ccccn2)c2ccccc2C12CCNCC2
2. Cc1ccc(CCN[C@@H]2c3ccccc3C3(CCNCC3)[C@H]2O)s1
3. CN(C)[C@H]1CCCCN(C(=O)c2cccc(-c3cccc(F)c3)c2)C1
4. CN(C)C1CCCN(C(=O)c2cccc(-c3ncc[nH]3)c2)CC1 (stereo unspecified)
5. CCC1CCCCCN1C(=O)c1ccc(N2CCC(O)CC2)cc1 (stereo unspecified)
6. COCC1CC2(CCN(Cc3nccs3)CC2)CN1Cc1ccccn1.O=C(O)C(F)(F)F.O=C(O)C(F)(F)F.O=C(O)C(F)(F)F (stereo unspecified)

Response line:
1. -16.64
2. 84.2
3. 60.02
4. 21.12
5. 32.16
6. 50.9

----------
Tested on: Leishmania donovani
Test: Leishmania intramacrophage assay
Format: functional, organism-based
Parameters: scale not given: in the data most compounds retested in dose-response had high values
Conditions: 30.3 µM; […]
About 1,000 (1.4%) of roughly 69,000 compounds showed an effect of 50% or more. This excerpt belongs to a sample that is enriched for strong results.
Test readout: Percent Effect (%)
Numbers only, in %.

Compound | Test system | Unit string | Percent Effect
OC1(CNCc2ccc(F)c(C(F)(F)F)c2)CCOC1 (stereo not given) | Leishmania donovani | % | 25.18
FC1(F)CCN(Cc2cccnc2)CC12CCN(c1ccccc1)C2.O=C(O)C(F)(F)F.O=C(O)C(F)(F)F.O=C(O)C(F)(F)F (stereo not given) | Leishmania donovani | % | 99.13
O=C(C1CCCO1)N1CCC2(CC1)COCCN(Cc1ccncc1)C2.O=C(O)C(F)(F)F.O=C(O)C(F)(F)F (stereo not given) | Leishmania donovani | % | 14.9

Count: 5. Required value per item: Percent Effect.
1. Cc1nccc(NCc2cncc3c2CCN(CC2CCOC2)C3)n1.Cl.Cl (stereo not given)
2. Cc1ccc2cccc(S(=O)(=O)N(C)C3CCCN(C)C3)c2n1 (stereo not given)
3. CCN(C(=O)NCc1ccccc1OC(F)F)C(C)c1cccnc1 (stereo not given)
4. CNS(=O)(=O)CCn1cc(-c2ccc(OC)c(OC)c2)nn1
5. Cn1ccnc1CN1CCC(F)(F)C2(CCN(c3cnccn3)C2)C1.O=C(O)C(F)(F)F (stereo not given)

Response line:
[55.7, 25.11, 43.41, 27.44, -10.04]

Count: 2. Required value per item: Percent Effect.
1. Cc1cc(NC(=O)c2ccccc2Br)n(C)n1
2. Cc1nccc(NCc2cncc3c2CCN(CCN(C)C)C3)n1

Response line:
[-1.29, 29.74]
